# Target Desc: Bcl-xL protein (Homo sapiens, UniProt Q07817, N197C)
# Construct: (2-197)[N197C]; His-His (two His8 stretches joined by a Gly/Ala/Ser/Thr linker)
# Sequence (Q07817 2-197 N197C): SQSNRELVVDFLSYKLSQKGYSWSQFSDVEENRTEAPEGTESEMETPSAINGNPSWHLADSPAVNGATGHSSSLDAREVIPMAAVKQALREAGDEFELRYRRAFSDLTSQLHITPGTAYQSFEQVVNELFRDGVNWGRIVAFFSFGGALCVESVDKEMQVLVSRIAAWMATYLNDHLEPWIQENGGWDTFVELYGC
# Method: Fluorescence quenching assay (PUMA peptide displacement)
# Reported Conditions: 1 nM protein, 400 nM peptide, 2 hours at 23° C.; KI determined from IC50
pKi: −log10 of the molar value.
Endpoint: pKi

// known answers, use as guide
>  <Compound>
Cc1cc(N(CCCC(O)C[N+]23CCN(CC2)CC3)c2nc(C(=O)[O-])c(CCCOc3ccc(C#CCN(C)C)cc3F)s2)nnc1Nc1nc2ccccc2s1 (stereo not shown) [Example 216]

>  <Target Desc>
Bcl-xL protein (Homo sapiens, UniProt Q07817, N197C)

>  <Result>
11.40

$$$$
>  <Compound>
Cc1cc(N(C)c2nc(C(=O)O)c(CCCOc3ccc(C45CC(CN(C)C)(C4)C5)cc3)s2)nnc1Nc1nc2ccccc2s1 [Example 234]

>  <Target Desc>
Bcl-xL protein (Homo sapiens, UniProt Q07817, N197C)

>  <Result>
11.80

$$$$
>  <Compound>
CNCCN(C)CC(O)CCCN(c1cc(C)c(Nc2nc3ccccc3s2)nn1)c1nc(C(=O)O)c(CCCOc2ccc(C#CCN(C)C)cc2F)s1 (stereo not shown) [Example 169]

>  <Target Desc>
Bcl-xL protein (Homo sapiens, UniProt Q07817, N197C)

>  <Result>
11.36

$$$$
>  <Compound>
Cc1cc(N(C)c2ccc(-c3cnn(CC45CC6(C)CC(C)(C4)CC(OCCNCC[C@H](O)CO)(C6)C5)c3C)c(C(=O)O)n2)nnc1Nc1nc2ccccc2s1 [Example 247]

>  <Target Desc>
Bcl-xL protein (Homo sapiens, UniProt Q07817, N197C)

>  <Result>
11.92

$$$$

A: CNCC#Cc1ccc(OCCCc2sc(N(CCCCC[N+](C)(C)CCCS(=O)(=O)[O-])c3cc(C)c(Nc4nc5ccccc5s4)nn3)nc2C(=O)O)c(F)c1 [Example 212]
B: CNCC#Cc1ccc(OCCCc2sc(N(CCN(C)C)c3cc(C)c(Nc4nc5ccccc5s4)nn3)nc2C(=O)O)c(F)c1 [Example 207]
Q) I'm curious whether A or B has the smaller pKi number. Which is it? Record your answer as the label of the chosen record.
A) B
(B: 11.43, A: 12.00)

A: CCN(CC)CCNCCCCN(c1cc(C)c(Nc2nc3ccccc3s2)nn1)c1nc(C(=O)O)c(CCCOc2ccc(C#CCN(C)C)cc2F)s1 [Example 176]
B: Cc1cc(N(CCCCN)c2nc(C(=O)O)c(CCCOc3ccc(C#CCN(C)C)cc3F)s2)nnc1Nc1nc2ccccc2s1 [Example 192]
C: CNCCN(C)CCCCN(c1cc(C)c(Nc2nc3ccccc3s2)nn1)c1nc(C(=O)O)c(CCCOc2ccc(C#CCN(C)C)cc2F)s1 [Example 178]
D: Cc1cc(N(CCCCCNCCCN2CCN(C)CC2)c2nc(C(=O)O)c(CCCOc3ccc(C#CCN(C)C)cc3F)s2)nnc1Nc1nc2ccccc2s1 [Example 195]
Q) Sort the compounds on pKi; start with the lowest figure. # the answer lists labels in the order requested
A) C, B, D, A

P: CNCCN(C)CCCCCN(c1cc(C)c(Nc2nc3ccccc3s2)nn1)c1nc(C(=O)O)c(CCCOc2ccc(C#CCN(C)C)cc2F)s1 [Example 190]
Q: Cc1cc(N(C)c2nc(C(=O)O)c(CC(O)COc3ccc(C#CCN(C)C)cc3F)s2)nnc1Nc1nc2ccccc2s1 (stereo not shown) [Example 164]
Q) I'm curious whether P or Q has the smaller pKi number. Which is it? Record your answer as the label of the chosen record.
A) P

1: Cc1cc(N(CC(O)CO)c2nc(C(=O)O)c(CCCOc3ccc(C#CCN(C)C)cc3F)s2)nnc1Nc1nc2ccccc2s1 (stereo not shown) [Example 122]
2: CNCC#Cc1ccc(OCCCc2sc(N(CCCC(O)C[N+](C)(C)CCCS(=O)(=O)[O-])c3cc(C)c(Nc4nc5ccccc5s4)nn3)nc2C(=O)O)c(F)c1 (stereo not shown) [Example 146]
3: Cc1cc(N(CCCCCN(C)C2CCNCC2)c2nc(C(=O)O)c(CCCOc3ccc(C#CCN(C)C)cc3F)s2)nnc1Nc1nc2ccccc2s1 [Example 165]
Q) Sort the compounds on pKi; start with the lowest figure. # the answer lists labels in the order requested
A) 3, 1, 2
(3: 11.23, 1: 11.52, 2: 11.92)

* * *

# Test system: H146 cells
# Method: H146 cell viability, MTT assay
# Format: cell-based
# Reported Conditions: Homo sapiens, NCI-H146, 48 h, 48 h exposure
# Experimental: MTT colorimetric assay is based on the mitochondrial reduction of tetrazolium salt by living cells. The viable cell number is proportional to the production of formazan salts, which can be read spectrophotometrically at 540 nm. MOLT-4 and H146 cells were purchased from ATCC and cultivated in RPMI 1640 supplemented with 10% heat inactivated fetal bovine serum, penicillin (100 IU/ml), streptomycin (100 μg/ml) and L-glutamine (2 mM). […] IC50s were calculated using standard four-parametric curve fitting.
pIC50: −log10 of the molar value.
Endpoint: pIC50

// known answers, use as guide
>  <Compound>
Cc1cc(N(C)c2nc(C(=O)O)c(C3CCN(CC(C)C)CC3)s2)nnc1Nc1nc2ccccc2s1 [Example 87]

>  <Result>
< 4.82

$$$$
>  <Compound>
COCc1c(Nc2nc3ccccc3s2)nnc(Nc2nc(C(=O)O)cs2)c1C [Example 28]

>  <Result>
< 4.82

$$$$

Next up:
Q) # return recorded pIC50 for input CC(C)c1cc(Nc2nc3ccccc3s2)nnc1Nc1nc(C(=O)O)cs1 [Example 6]
A) < 4.35

* * *

Here, each record is paired with measured pIC50 data.
# System: H146 cells
# Method: H146 cell viability, MTT assay
# Format: cell-based
# Reported Conditions: Homo sapiens, NCI-H146, 48 h, 48 h exposure
# Procedure: MTT colorimetric assay is based on the mitochondrial reduction of tetrazolium salt by living cells. The viable cell number is proportional to the production of formazan salts, which can be read spectrophotometrically at 540 nm. MOLT-4 and H146 cells were purchased from ATCC and cultivated in RPMI 1640 supplemented with 10% heat inactivated fetal bovine serum, penicillin (100 IU/ml), streptomycin (100 μg/ml) and L-glutamine (2 mM). […] IC50s were calculated using standard four-parametric curve fitting.
pIC50: −log10 of the molar value.

Q) # return recorded pIC50 for input Cc1cc(N(CCC(O)CO)c2nc(C(=O)O)cs2)nnc1Nc1nc2ccccc2s1 (stereo not drawn)
A) < 4.82

Q) # return recorded pIC50 for input "Cc1cc(N(C)c2ccc(C(=O)O)s2)nnc1Nc1nc2ccccc2s1"
A) < 4.82

Q) # return recorded pIC50 for input "CCc1c(Nc2nc(C(=O)O)cs2)nnc(Nc2nc3ccccc3s2)c1C"
A) < 4.82

* * *

# Tested on: H146 cells
# Method: H146 cell viability, MTT assay
# Format: cell-based
# Reported Conditions: Homo sapiens, NCI-H146, 48 h, 48 h exposure
# Description: MTT colorimetric assay is based on the mitochondrial reduction of tetrazolium salt by living cells. The viable cell number is proportional to the production of formazan salts, which can be read spectrophotometrically at 540 nm. MOLT-4 and H146 cells were purchased from ATCC and cultivated in RPMI 1640 supplemented with 10% heat inactivated fetal bovine serum, penicillin (100 IU/ml), streptomycin (100 μg/ml) and L-glutamine (2 mM). […] IC50s were calculated using standard four-parametric curve fitting.
Endpoint: IC50 (µM)

>  <Compound>
Cc1cc(N(C)c2ccc(-c3cnn(CC45CC6CC(CC(C6)C4)C5)c3C)c(C(=O)O)n2)nnc1Nc1nc2ccccc2s1

>  <Endpoint>
IC50

>  <Units Text>
µM

>  <Result>
0.201

$$$$
>  <Compound>
CNCC#Cc1ccc(OCCCc2sc(N(CCCCCC[N+](C)(C)C)c3cc(C)c(Nc4nc5ccccc5s4)nn3)nc2C(=O)[O-])c(F)c1

>  <Endpoint>
IC50

>  <Units Text>
µM

>  <Result>
1.16

$$$$
>  <Compound>
CNCCCCCN(c1cc(C)c(Nc2nc3ccccc3s2)nn1)c1nc(C(=O)O)c(CCCOc2ccc(C#CCN(C)C)cc2F)s1

>  <Endpoint>
IC50

>  <Units Text>
µM

>  <Result>
0.027

$$$$

P: Cc1c(Nc2nc(C(=O)O)c(CCCOc3ccc(CCCN(C)C)cc3F)s2)nnc(Nc2nc3ccccc3s2)c1C
Q: Cc1ccc(S(=O)(=O)N(C)CC#Cc2ccc(OCCCc3sc(N(CCC(O)CO)c4cc(C)c(Nc5nc6ccccc6s5)nn4)nc3C(=O)O)c(F)c2)cc1 (stereo not drawn)
R: Cc1cc(N(C)c2nc(C(=O)O)c(CCCOc3ccc(C#CCN(C)C)cc3F)s2)nnc1Nc1nc2ccccc2s1
Q) Sort the compounds on IC50; start with the lowest figure. # the answer lists labels in the order requested
A) R, Q, P
